Attribution: patent US20210246204A1

- TGT: T1, histidine-tagged human Siglec-7 (NovoProtein) (human, UniProt Q9Y286 19-353)
- T1 construct: Bought protein; also called recombinant human Siglec-7; recombinant Siglec-7; not shown: histidine tag
- EXPERIMENT DESCRIPTION: BLI, antibody captured
OUTCOME MEASURE: kon (M⁻¹ s⁻¹)
Give bare numbers, in M⁻¹ s⁻¹.

If you can, please state the reported kon value of S7AB-H8.12 (antibody, V domains shown) VH: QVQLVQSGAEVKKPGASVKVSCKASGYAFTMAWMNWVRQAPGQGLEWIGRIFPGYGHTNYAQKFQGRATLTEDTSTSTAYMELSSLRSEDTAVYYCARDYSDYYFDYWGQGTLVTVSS VL: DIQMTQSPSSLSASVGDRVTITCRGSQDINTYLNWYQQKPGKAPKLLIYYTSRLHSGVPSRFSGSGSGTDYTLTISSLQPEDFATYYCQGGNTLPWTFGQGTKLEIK .
3350

I have this binder here, S7AB-H8.22 (antibody, V domains shown) VH: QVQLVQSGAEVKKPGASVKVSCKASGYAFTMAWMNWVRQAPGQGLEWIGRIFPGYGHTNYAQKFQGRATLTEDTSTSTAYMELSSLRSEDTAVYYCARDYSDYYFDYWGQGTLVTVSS VL: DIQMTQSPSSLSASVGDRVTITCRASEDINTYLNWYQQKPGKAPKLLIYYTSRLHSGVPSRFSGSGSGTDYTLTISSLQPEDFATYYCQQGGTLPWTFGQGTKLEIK , and I need its recorded kon.
135000

# ---- query binder ----
Request the reported kon associated with S7AB-H8.26 (antibody, V domains shown) VH: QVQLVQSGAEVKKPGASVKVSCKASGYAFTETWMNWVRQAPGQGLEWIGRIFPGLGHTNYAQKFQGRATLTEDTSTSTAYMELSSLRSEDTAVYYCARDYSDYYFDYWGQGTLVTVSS VL: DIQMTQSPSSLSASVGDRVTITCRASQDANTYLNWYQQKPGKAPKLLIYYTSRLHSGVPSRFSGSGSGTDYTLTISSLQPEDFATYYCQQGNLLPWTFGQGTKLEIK
149000
